# Tested on: FMOC22 (patient-derived mucinous ovarian cancer cells)
# testSummary: drug sensitivity score (DSS3, normalised partial AUC of % inhibition dose-response) (DSS (score)); higher = more sensitive (stronger inhibition of viability); extreme values may be limits of the assay
# experimentalContext: 72 h; library: FO5A; assay format: 2D, 384-well, CellTiter-Glo
Please use Satisfied whenever drug sensitivity score is not below 0.7, and Not satisfied whenever it is.

Does the reported drug sensitivity score for Cc1ccc(NC(=O)c2ccc(CN3CC[C@H](N(C)C)C3)c(C(F)(F)F)c2)cc1Nc1nccc(-c2cncnc2)n1 fall at or above the 0.7 mark?
Not satisfied

Does the reported drug sensitivity score for CCc1cncnc1N1CCN(Cc2nc3ccc(C(F)(F)F)cc3[nH]2)CC1 fall at or above the 0.7 mark?
Satisfied

Does the reported drug sensitivity score for Nc1nc(N)c2nc(-c3cccc(O)c3)c(-c3cccc(O)c3)nc2n1 fall at or above the 0.7 mark?
Not satisfied

Does the reported drug sensitivity score for CNC(=O)c1cccc2cc(Oc3ccnc4cc(OCC5(N)CC5)c(OC)cc34)ccc12 fall at or above the 0.7 mark?
Not satisfied

Does the reported drug sensitivity score for CO[C@H]1C(=O)[C@]2(C)[C@@H](OC)C[C@H]3OC[C@@]3(OC(C)=O)[C@H]2[C@H](OC(=O)c2ccccc2)[C@]2(O)C[C@H](OC(=O)[C@H](O)[C@@H](NC(=O)OC(C)(C)C)c3ccccc3)C(C)=C1C2(C)C fall at or above the 0.7 mark?
Satisfied

More entries:
Does the reported drug sensitivity score for Cc1nc(C(=O)NCC(=O)O)c(O)c2ccc(Oc3ccccc3)cc12 fall at or above the 0.7 mark?
Not satisfied

====

Assignment: determine reported drug sensitivity score for the given molecules.
# Tested on: FMOC03 (patient-derived mucinous ovarian cancer cells)
# testSummary: drug sensitivity score (DSS3, normalised partial AUC of % inhibition dose-response) (DSS (score)); higher = more sensitive (stronger inhibition of viability); extreme values may be limits of the assay
# experimentalContext: 72 h; library: FO5A; assay format: 2D, 384-well, CellTiter-Glo
Answers are plain numbers.

Consider the molecule O=C(/C=C\n1cnc(-c2cc(C(F)(F)F)cc(C(F)(F)F)c2)n1)NNc1cnccn1 [Selinexor] and give its measured drug sensitivity score.
12.3

Items follow; give drug sensitivity score for each.
1. COc1cc2c(cc1OCCCN1CCCC1)N=C(N)C21CCC1 [A-366]
2. COc1cc(C)[nH]c(=O)c1CNC(=O)c1c(C)n([C@H](C)C2CCOCC2)c2ccccc12 [CPI-360]
3. CN(C)CCOc1ccc(/C(=C(/CCCl)c2ccccc2)c2ccccc2)cc1 [Toremifene]

0.7
0
5.3

Items follow; give drug sensitivity score for each.
1. CC[C@@H]1[C@H](F)C(=O)N[C@@H]1COc1nccc2cc(C(N)=O)c(OC)cc12
2. O=C(Nc1cc(Oc2cc(F)c(NC(=O)C3(C(=O)Nc4ccc(F)cc4)CC3)cc2F)ccn1)C1CC1 [Altiratinib]
3. COc1cc2c(NC3CCN(C(C)C)CC3)nc(C3CCCCC3)nc2cc1OCCCN1CCCC1 [UNC0638]
4. CCN(CC)CCOc1ccc(C(=C(Cl)c2ccccc2)c2ccccc2)cc1 [Clomifene]

0
5
0
7

====

# Test system: FMOC09 (patient-derived high-grade serous ovarian cancer cells)
# testSummary: drug sensitivity score (DSS3, normalised partial AUC of % inhibition dose-response) (DSS (score)); higher = more sensitive (stronger inhibition of viability); extreme values may be limits of the assay
# experimentalContext: 72 h; library: FO5A; assay format: 2D, 384-well, CellTiter-Glo
measure: drug sensitivity score
Give bare numbers.

Items follow; give drug sensitivity score for each.
1. CNC(=O)c1ccc(-c2cnc3ncc(Cc4ccc5ncccc5c4)n3n2)cc1F
2. O=C(NC[C@H](O)CN1CCc2ccccc2C1)c1cc(NC2COC2)ncn1
3. CCCCc1nc2cc(/C=C/C(=O)NO)ccc2n1CCN(CC)CC
4. CCCCCOC(=O)Nc1nc(=O)n([C@@H]2O[C@H](C)[C@@H](O)[C@H]2O)cc1F
5. CN(CC(=O)N(Cc1ccc(C2CCCCC2)cc1)c1ccc(C(=O)O)cc1)S(=O)(=O)c1c(F)c(F)c(F)c(F)c1F

1: 0; 2: 0.3; 3: 5.8; 4: 0; 5: 10.3
